What cytotoxicity at 10 µM was measured for each of the following?
- experiment_description: Toxicity liver stage against HepG2, at 10uM
- Type: cell-based
- Design: test concentration 10 uM, cell line HepG2-A16-CD81EGFP
- details: human, HepG2-A16-CD81EGFP cells; read-out: INHIBITION
Answers are plain numbers, in %.

Please give cytotoxicity at 10 µM, item by item, for the list that follows.
1. COCCc1ncc(CN2CCCC(C(=O)c3ccccc3)C2)cn1 (stereo unspecified)
2. CN(CC(=O)N1CCN(c2ccccc2F)CC1)c1cnccn1
3. CC(C)c1cc(CN(C)C(=O)C(C)N2CCc3ccccc3C2)no1 (stereo unspecified)
4. CC1CNC(=O)CCN1Cc1cc(O)c2cccc(F)c2n1 (stereo unspecified)
5. COCC(=O)NCc1cc(=O)n2c(n1)CN(Cc1ccncc1)CCC2

1. -1.38
2. -0.341
3. 4.24
4. -4.5
5. -99.9

Look up and state reported cytotoxicity at 10 µM for Cc1cc(C(=O)N2CCOCC2c2nc(C)c[nH]2)nc(O)n1 (stereo unspecified)
2.85
